Documented activity, negative = inhibition across a set of compounds
Test: Stat Signaling Pathway (AID 446);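 note: ME-180 cervical cancer cells given 40 pM IL-6 alongside compound; SIE-controlled beta-lactamase reporter measured as 460/530 nm FRET emission ratio; % is set by controls: 0 for no effect and ±100 for the full control effect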
Conditions: ME-180 (cervical carcinoma) SIE beta-lactamase reporter, IL-6 stimulated, 5 h; at 17.2 µM (top of the series) unless noted
Description: NCGC Assay Overview: The IL-6/STAT signaling pathway was assayed in ME-180 cervical carcinoma cells by a beta-lactamase reporter gene controlled by a STAT Inducible Element (SIE). This reporter is induced by IL-6 at 40 pM AC50 and inhibited by the pan JAK inhibitor, 2-(1,1-Dimethylethyl)-9-fluoro-3,6-dihydro-7H-benz[h]-imidaz[4,5-f]isoquinolin-7-one, at approximately 10 nM AC50. Plated cells were incubated overnight and on the following day, stimulated with 40 pM IL-6 for 5 hrs. […]
Records with an inconclusive call do not appear. Active and inactive are the calls of the source. Calls come from the whole dose curve; as a rule, active = well fitted curve in either direction with a large enough effect (not every such curve was filed as active); inconclusive = small, poorly fitted or top-dose-only effect, or another doubt; inactive = flat fitted curve, though single readings scatter.

See these solved cases before continuing.
CCC(=O)Nc1nc2ccccc2n1CCN(C)C: 10.7% (inactive)
Cc1c(NC(=O)c2ccc(=O)oc2)c(=O)n(-c2ccccc2)n1C: 2.43% (inactive)

Req: Identify measured activity, negative = inhibition corresponding to O=C(Oc1ccccc1N1C(=O)CCC1=O)c1ccco1
Resp: 1.19% (inactive)

Req: Identify measured activity, negative = inhibition corresponding to CC1CCc2cc(F)cc3c(O)c(C(=O)NCc4ccco4)c(=O)n1c23 (stereo unspecified)
Resp: -2.44% (inactive)

Req: Identify measured activity, negative = inhibition corresponding to COc1ccc(CCn2c(=N)c(C(=O)NCc3ccco3)cc3c(=O)n4ccccc4nc32)cc1
Resp: 2.96% (inactive)
